Target: human A3 receptors (Homo sapiens, UniProt P0DMS8)
Construct: expressed in transfected cells; host or cells: HEK-293 cells (membranes)
Sequence (P0DMS8 1-318): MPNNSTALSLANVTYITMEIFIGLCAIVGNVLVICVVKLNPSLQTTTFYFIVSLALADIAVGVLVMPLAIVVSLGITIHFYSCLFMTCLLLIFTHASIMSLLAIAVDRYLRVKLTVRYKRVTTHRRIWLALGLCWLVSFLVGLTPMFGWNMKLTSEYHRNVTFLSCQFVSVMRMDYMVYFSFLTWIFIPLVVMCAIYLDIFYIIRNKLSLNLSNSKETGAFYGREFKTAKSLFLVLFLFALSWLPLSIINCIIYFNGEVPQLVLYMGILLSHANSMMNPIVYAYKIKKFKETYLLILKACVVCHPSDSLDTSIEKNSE
Experiment: radioligand binding, displacement of specific [125I]AB-MECA binding at human A3 receptors expressed in HEK-293 cells
Settings: Table 7; 10^-4 M; read-out: % of specific binding displaced hA3
# inhibition at 100 µM per entry
# value in %; strip the unit string

Exercise: Which value of inhibition at 100 µM has been reported for CCn1c2c(c3cc4c(cc3c1=O)OCO4)C(=O)CCC2 [Compound 46, reference compound] in the records?
Key: 19

Exercise: Which value of inhibition at 100 µM has been reported for "O=C1c2ccccc2-c2cc3c(cc21)OCO3" in the records?
Key: 52

Exercise: Which value of inhibition at 100 µM has been reported for COc1cc2c(c(O)c1OC)c(=O)c1ccccc1n2C [Compound 51, reference compound] in the records?
Key: 63

Exercise: Which value of inhibition at 100 µM has been reported for O=c1c(-c2ccc(O)cc2)coc2cc(O)cc(O)c12 [Compound 40, genistein, reference compound] in the records?
Key: 20

* * *

Molecular target: A2a receptors (Rattus norvegicus)
Construct: Displacement of specific [^3 H]; from tissue; host or cells: rat striatal membranes
Sequence (P30543 whole entry): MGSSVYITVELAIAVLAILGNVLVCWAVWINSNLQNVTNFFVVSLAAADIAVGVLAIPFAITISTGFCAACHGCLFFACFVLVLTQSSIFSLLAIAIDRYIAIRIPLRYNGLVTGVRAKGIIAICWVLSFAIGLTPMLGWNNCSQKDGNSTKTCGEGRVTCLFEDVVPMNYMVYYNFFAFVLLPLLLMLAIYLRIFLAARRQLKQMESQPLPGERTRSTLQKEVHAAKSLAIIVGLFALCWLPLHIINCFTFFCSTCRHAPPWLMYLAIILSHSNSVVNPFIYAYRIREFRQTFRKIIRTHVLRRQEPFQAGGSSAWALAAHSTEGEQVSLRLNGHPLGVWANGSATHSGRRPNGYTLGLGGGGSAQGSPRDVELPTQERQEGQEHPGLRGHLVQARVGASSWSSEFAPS
Experiment: radioligand binding, displacement of specific [3H]CGS 21680 binding in rat striatal membranes
Conditions: Table 12; 10^-4 M; read-out: displacement of specific binding rA2A
# inhibition at 100 µM per entry

compound="CCOC(=O)C1=C(C)NC(c2ccccc2)=C(C(=O)OCC)C1C#Cc1cccc(C)c1 (racemic)" measured_endpoint="inhibition at 100 µM" test_value="< 10%"
compound="CCOC(=O)C1=C(C)NC(c2ccccc2)=C(C(=O)OCC)C1c1cc2ccccc2o1 (racemic)" measured_endpoint="inhibition at 100 µM" test_value="< 10%"

Now for the compound whose inhibition at 100 µM we want.
Exercise: Requested read-out inhibition at 100 µM, target or system A2a receptors (Rattus norvegicus), entry CCOC(=O)C1=C(C)NC(c2ccccc2)=C(C(=O)OCCCc2ccccc2)C1C#Cc1ccccc1 (racemic)
Key: < 10%

* * *

Target: A1 receptors (Rattus norvegicus, UniProt P25099)
Sequence (P25099 whole entry): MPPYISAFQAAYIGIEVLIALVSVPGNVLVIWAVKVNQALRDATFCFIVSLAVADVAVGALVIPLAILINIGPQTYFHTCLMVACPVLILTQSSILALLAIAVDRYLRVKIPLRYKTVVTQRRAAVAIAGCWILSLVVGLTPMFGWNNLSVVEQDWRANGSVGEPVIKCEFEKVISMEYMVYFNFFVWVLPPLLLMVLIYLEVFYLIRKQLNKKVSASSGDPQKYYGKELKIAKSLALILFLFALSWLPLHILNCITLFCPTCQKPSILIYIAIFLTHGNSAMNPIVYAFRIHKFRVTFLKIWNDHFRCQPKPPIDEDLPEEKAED
Assay: biochemical
Type: binding
Conditions: Table 15; [3H]PIA, rat brain membranes; read-out: Ki rA1
Measured endpoint: pKi
The value called pKi is obtained by taking minus log10 of the concentration in mol/L.

Record excerpt, results attached:
structure_as_smiles=NCCCC(=O)Nc1nc2ccc(Cl)cc2c2nc(-c3ccco3)nn12 measured_endpoint=pKi test_value=7.95
structure_as_smiles=CCCC(=O)Nc1nc2ccc(Cl)cc2c2nc(-c3ccco3)nn12 measured_endpoint=pKi test_value=7.49

Now for the molecule whose pKi we want.
Exercise: Which value of pKi has been reported for "CCCn1c(=O)n2nc(-c3ccco3)nc2c2cc(Cl)ccc21" in the records?
Key: 5.70
